Format: in vivo, Sprague–Dawley rats
MEASUREMENT_PARAMETERS: Sprague-Dawley, rat, plasma, iv, 15 mg/kg
OUTCOME_MEASURE: AUC(0-t)

Consider the compound COc1cc2c(cc1OC)CN(CCc1ccc(NC(=O)c3cc(OC)c(OC)cc3NC(=O)c3cnc4ccccc4c3)cc1)CC2 [tariquidar] and give its measured AUC(0-t).
25200 ng·h/mL

----------
Format: in vivo, Sprague–Dawley rats
MEASUREMENT_PARAMETERS: Sprague-Dawley, rat, plasma, iv, 15 mg/kg
OUTCOME_MEASURE: Tmax (min)
Answers are plain numbers, in min.

If you can, please state the reported Tmax value of "COc1cc2c(cc1OC)CN(CCc1ccc(NC(=O)c3cc(OC)c(OC)cc3NC(=O)c3cnc4ccccc4c3)cc1)CC2" .
30

Cited source: paper PMC6133083
